# System: human CD33
# assay-method-text: Biacore SPR binding kinetics of anti-CD33 scFv-Fc clones with or without 10 µM MTX
# experimental-setup: CD33; 0 µM MTX; 37° C., pH 7.4; scFv-Fc
measured-property: kon, kinetics toward antigen with 0 µM MTX (M⁻¹ s⁻¹)

[[record]]
molecule = "P02_D09: anti-CD33 clone with conditional affinity; VH SEQ ID NO: 35, VL SEQ ID NO: 36; also as scFv in CAR (antibody, V domains shown, Synthetic Antibody, also as scFv in CAR) VH: QVQLVESGGGLVQAGGSLRLSCAASRRSSRSWAMHWVRQAPGKGLEWVAVISYDGRLKYYADSVKGRFTISRDNAEYLVYLQMNSLRAEDTAVYYCAAEEGDGGFFDYWGQGTLVTVSS VL: QSVLTQPPSASGTPGQRVTISCSGSSSNIGSNYVNWYQQLPGTAPKLLIYRNNERPSGVPDRFSGSKSGTSASLAISGLRSEDEADYYCAAWDGSLSGRGVFGTGTKLTVL"
unit = "M⁻¹ s⁻¹"
readout_value = 40000

[[record]]
molecule = "P02_D08: anti-CD33 clone with conditional affinity; VH SEQ ID NO: 13, VL SEQ ID NO: 14 (antibody, V domains shown, Synthtic Antibody; Synthetic Antibody) VH: QVQLVESGGGLVQAGGSLRLSCAASRRSSRSWAMHWVRQAPGKGLEWVAVISYDGRLKYYADSVKGRFTISRDNAEYLVYLQMNSLRAEDTAVYYCAAERGDGLDGNVGLDIWGQGTLVTVSS VL: DIQMTQSPSSLSASVGDRVTITCRASQSISKYLNWYQQKPGKAPKLLIYGASTLQSGVPSRFSGSGSGTDFTLTISSLQPEDFATYYCQQSYSSGTFGQGTKVEIK"
unit = "M⁻¹ s⁻¹"
readout_value = 61000

